Answer each item with its documented MIC90.
Tested on: Mycobacterium tuberculosis
PROTOCOL NOTES: AntiMycobacterium tuberculosis activity day 10 in 7H9/2.5mM butyrate/pH6/0.1mM nitrite MIC90 (uM)
Assay type: functional
CONDITION INFO: 240 h
State the answer as a number, implicitly in µM.

Look up Mycobacterium tuberculosis data: MIC90 of "CCCCOC(=O)Nc1cc2nc(C3CCCCC3)[nH]c2cc1N1CCCC1" , then report it.
0.78

Fetch value of MIC90 on Mycobacterium tuberculosis for "COc1cc(CN2CCC3(C=Cc4ccccc43)CC2)cc2c1OCO2" .
12.5

Give MIC90; test system Mycobacterium tuberculosis; compound "O=C(CCC1CCCCC1)Nc1cccc(-c2nnc(-c3ccco3)o2)c1"
1.5

Lab note: record MIC90 of "c1ccc(C[C@@H]2CN(c3nccc(Oc4ccc(-n5ccnc5)cc4)n3)CCN2)cc1" tested on Mycobacterium tuberculosis.
50

Given "CCOc1ccc(-c2nc(CNCCc3ccc(F)cc3)cs2)cc1" , report its MIC90 on Mycobacterium tuberculosis.
50

Give MIC90; test system Mycobacterium tuberculosis; compound "c1ccc(-c2nc(NC3CCCCC3)cc(C3CC3)n2)nc1"
50

###

System: Mycobacterium tuberculosis
PROTOCOL NOTES: AntiMycobacterium tuberculosis activity 2-week GAST/Fe MIC (uM)
Format: functional
CONDITION INFO: 336 h
Task for the reader: assign each of the following compounds its reported MIC.
Numbers only; they are read as µM.

Give reported MIC value for "Cc1cc(Cl)ccc1NC(=O)CCc1ccc(S(=O)(=O)NCC(C)C)cc1"
2.3

Write down MIC measured for item "CCc1c(C)nc(-n2nc(C)cc2NC(=O)c2ccccc2SC)[nH]c1=O"
0.2

Supply reported MIC belonging to this compound: "COc1ccc2nc(C)cc(OCC(=O)NCc3ccccc3)c2c1"
1.56

Name the recorded MIC of the item CC(C)n1ncc2c(C(=O)NCC(c3cccs3)N3CCOCC3)cc(-c3ccccc3)nc21 (configuration not stated) in your answer.
0.3

Read the entry "CN1CCN(CCCOc2ncc(Nc3ncc(-c4ccc(C(F)(F)F)c(F)c4)nc3C(N)=O)cn2)CC1" and write its reported MIC.
1.56

Fill in reported MIC for this entry: "Cc1cc(O)nc(-n2nc(C)cc2C)n1"
4.7

Please give measured MIC of the following entry: "Nc1ncnc2c1ncn2[C@@H]1O[C@H](COS(=O)(=O)NC(=O)c2ccccc2O)[C@@H](O)[C@H]1O"
0.6

Give me measured MIC, please, for this compound: "COc1ccc(C2(C(=O)Nc3ccc(Br)cc3)CCCC2)cc1"
19

Using the record for "COC(=O)c1c(NC(=O)c2c(F)c(F)c(F)c(F)c2F)sc2c1CCCCC2" , state its measured MIC.
0.78

Name the recorded MIC of the item "CCOC(=O)c1c(NC(=O)c2c(F)c(F)c(F)c(F)c2F)sc(C(N)=O)c1C" in your answer.
0.1

# return recorded MIC for entry "COc1cccc(-n2nnnc2S(C)(=O)=O)c1"
1.2

For the compound CC(=O)NCC1CN(c2ccc(-c3ccc(CO)cc3)c(F)c2)C(=O)O1 (configuration not stated) , give its reported MIC.
0.3

Tell me MIC reported for CC(Oc1ccccc1)C(=O)Nc1nc(-c2ccccn2)cs1 (configuration not stated)
2.3

Specify measured MIC for "Cc1ccc2nc(C)c(-c3ccn(Cc4ccccc4)n3)n2c1" .
0.78

Respond only with MIC recorded for "NC(=O)c1cc(Br)ccc1OCCOc1ccccc1"
37

Check the records and state MIC for "COc1ccc(Cn2cnc3c(-c4ccco4)nc(Cl)nc32)cc1"
1.56

For "N#Cc1nc(-c2ccccc2F)oc1NCCc1ccccc1" , write its MIC.
1.56

State its MIC for this compound: CC(=O)NC[C@H]1CN(c2ccc(N3CCSCC3)c(F)c2)C(=O)O1 [SUTEZOLID]
0.6

Supply MIC value. Item: "Cc1cnc(N2CCN[C@@H](Cc3ccccc3)C2)nc1Oc1ccc(-n2ccnc2)cc1"
9.4

Look up and state reported MIC for "O=C(c1ccco1)N(CCCn1ccnc1)c1nc2c(Cl)cccc2s1"
37

###

System: Mycobacterium tuberculosis
PROTOCOL NOTES: AntiMycobacterium tuberculosis activity 1-week GAST/Fe MIC (uM)
Type: functional
CONDITION INFO: 168 h
Could you mark each record 1 if its MIC falls strictly under 0.8 µM, and 0 if it equals or exceeds it?

Threshold test, MIC < 0.8 µM: CC(=O)NCC1CN(c2ccc(-c3ccc(CNCc4cn[nH]n4)cc3)c(F)c2)C(=O)O1 (stereo not given)
1

Quick check: MIC of "COc1ccc2nc(C)cc(OCC(=O)Nc3ccccc3OC)c2c1" under 0.8 µM?
1

Report whether reported MIC is lower than 0.8 µM (strictly) for "O=C(Nc1nc(-c2ccccn2)cs1)c1cncn1-c1ccccc1"
0

Bench note: check whether "C[C@]1(COc2ccc(N3CCC(Oc4ccc(OC(F)(F)F)cc4)CC3)cc2)Cn2cc([N+](=O)[O-])nc2O1" shows MIC below 0.8 µM
1

Determine whether this compound shows MIC lower than 0.8 µM (ties excluded): "COc1ccc(C2(C(=O)Nc3ccc(Br)cc3)CCCC2)cc1"
0

In the record for CC(C)n1ncc2c(C(=O)NCC(c3cccs3)N3CCOCC3)cc(-c3ccccc3)nc21 (stereo not given) , is MIC less than 0.8 µM?
1

Problem: For the compound "COc1cc(C(F)(F)F)nc2ccc(C)c(N)c12" , is MIC under 0.8 µM?
1

Strictly below 0.8 µM: is that where MIC of "COc1cccc(-n2nnnc2S(=O)(=O)Cc2ccccc2)c1" sits?
0

I wonder whether CCc1nc2ccccc2n1CC(O)COc1cc(C)ccc1Cl (stereo not given) has MIC below 0.8 µM. Can you tell?
0

###

Tested on: Plasmodium falciparum
PROTOCOL NOTES: Antimalarial activity: Asexual Blood Stage Plasmodium falciparum 3D7 IC50 (uM)
Type: functional, organism-based
Consider the cut-off 0.8 µM. If the recorded IC50 is strictly smaller, the label is condition met; if not, the label is condition not met.

Identify whether the molecule "CC(C)NCC(=O)Nc1cccc(C(=O)Nc2cccc(C(F)(F)F)c2)c1" records IC50 below 0.8 µM.
condition met

Given "O=C1COCc2ccc(Br)cc2N1Cc1ccc(C(F)(F)F)cc1" , is recorded IC50 strictly lower than 0.8 µM?
condition not met

Please determine if "Cc1cc(Nc2ccncc2)n2nc(C)c(-c3ccccc3Cl)c2n1" is below 0.8 µM in terms of IC50.
condition met

Consider "Cc1ccc(Oc2ccc(NC(=O)CNc3ccccc3N3CCCC3=O)cc2)cc1" . Does its IC50 lie strictly below 0.8 µM?
condition met

Find out if reported IC50 for CC(C)C(C(=O)Nc1ccc(S(=O)(=O)N(C)C)cc1)c1ccc(Cl)cc1 (centres undefined) is less than 0.8 µM
condition not met

Report whether reported IC50 is lower than 0.8 µM (strictly) for COc1cc(OC)cc(C(=O)NCC2Cc3cc(Cl)cc(-c4ccncc4)c3O2)c1 (centres undefined)
condition met

Just wondering, is IC50 of "NCC(=O)N1CCn2c(nc(-c3ccccc3)c2Nc2ccc3c(c2)OCO3)C1" below 0.8 µM?
condition met

Is it true that IC50 reported for "Nc1nccc2ccc(Oc3ccncc3)cc12" is less than 0.8 µM?
condition met

I wonder whether "N#Cc1ccc(-c2cnc(N)c(-c3ccc(C(N)=O)cc3)n2)cc1" has IC50 below 0.8 µM. Can you tell?
condition met

Is 0.8 µM strictly greater than the molecule's reported IC50? molecule: "Cc1cc(C(=O)Nc2cnn(Cc3ccc(Cl)cc3Cl)c2)no1"
condition not met

Hi there! Is IC50 for O=C(C(Cc1c[nH]c2ccccc12)NS(=O)(=O)c1ccc(Cl)cc1)N1CCCCC1 (centres undefined) below 0.8 µM, do you know?
condition not met

Does the reported IC50 of the following molecule sit strictly below 0.8 µM? "CN1CCN(c2nccc3[nH]c(-c4cccc(F)c4)cc23)CC1"
condition not met

Report whether reported IC50 is lower than 0.8 µM (strictly) for "CCn1cnc2c(Nc3cc(F)cc(F)c3)nc(C#N)nc21"
condition not met

Hello, I'm reviewing records and need to know if IC50 of "O=C(NCCc1ccccc1)c1cc(-c2cccnc2)cnc1NCC1CC1" is below 0.8 µM. Could you check?
condition not met

Report whether reported IC50 is lower than 0.8 µM (strictly) for "Nc1ccc(C(=O)Nc2ccc(-c3nc4ccccc4o3)cc2)cc1"
condition not met

Would you kindly verify if IC50 of "CN(C)CCNC(=O)N1CCCN(c2ncnc3cc(-c4ccccc4)sc23)CC1" is strictly less than 0.8 µM?
condition not met

Threshold test, IC50 < 0.8 µM: "Nc1ncc(Br)cc1-c1nc2cc(Cl)cnc2[nH]1"
condition not met

Find out if reported IC50 for "CCN(CC)S(=O)(=O)c1ccc(Cl)c(C(=O)Nc2ccc3nc(C)sc3c2)c1" is less than 0.8 µM
condition met

Please let me know if Cc1nn(C)cc1C(C)Nc1nncc(-c2ccc(C(F)(F)F)cc2)n1 (centres undefined) shows IC50 below 0.8 µM.
condition met

Quick check: IC50 of "CNC(=O)c1cc(S(=O)(=O)N2CCN(c3ccccn3)CC2)cs1" under 0.8 µM?
condition not met

Would you kindly verify if IC50 of "FC(F)(F)c1cccc(-c2nc3c(NCc4ccncc4)nccc3[nH]2)c1" is strictly less than 0.8 µM?
condition met

Hello, I'm reviewing records and need to know if IC50 of "CC1(C)Cc2c(c(N3CCOCC3)nc3snc(Br)c23)CO1" is below 0.8 µM. Could you check?
condition met

Hi there! Is IC50 for "CCN(CC)CCCN1CCN(C(=O)c2cccc(-c3noc(C(F)(F)F)n3)c2)CC1" below 0.8 µM, do you know?
condition met

Threshold test, IC50 < 0.8 µM: O=C1N(Cc2cc3ccccc3s2)CC2CN(Cc3ccccc3)CCN12 (centres undefined)
condition not met

Record O=C1Nc2ccc(Br)cc2C12NCCc1c2[nH]c2ccccc12 (centres undefined) : is its IC50 strictly below 0.8 µM?
condition met

Given "CC(C)c1ncc(-c2ccncc2)c([C@H]2CC[C@H](CNC(=O)c3cccnc3)CC2)n1" , is recorded IC50 strictly lower than 0.8 µM?
condition not met

Confirm or reject: IC50 of "CC(=O)Nc1ccc(NC(=O)c2cc(-c3cc(Cl)ccc3O)n[nH]2)cc1" lies strictly below 0.8 µM
condition met

In plain terms, does "Cc1nc(-c2cccc(NCc3ccccc3)c2)[nH]c1C" come in under 0.8 µM for IC50?
condition not met
